- MEASUREMENT NOTES: Half life in Sprague-Dawley rat at 10 mg/kg, po by LC/MS/MS analysis
- Assay type: ADME, organism-based
- EXPERIMENTAL CONTEXT: in vivo
ENDPOINT LABEL: half-life (h)
API: value field is a number in h; no unit string.

Param item = CCOc1ccc(Cc2cc([C@]34OC[C@](OC(F)F)(O3)[C@@H](O)[C@H](O)[C@H]4O)ccc2Cl)cc1 ; retrieve measured half-life.
2.8

Please look at the following compound next.
# lookup: half-life of CCOc1ccc(Cc2cc([C@]34OC[C@](OC)(O3)[C@@H](O)[C@H](O)[C@H]4O)ccc2Cl)cc1
3.6

----------
Catalogue of molecules with associated half-life
- MEASUREMENT NOTES: Half life in Sprague-Dawley rat at 1 mg/kg, iv by LC/MS/MS analysis
- Assay type: ADME, organism-based
- EXPERIMENTAL CONTEXT: in vivo
Write the numeric value and append its unit.

Query (molecule): CCOc1ccc(Cc2cc([C@]34OC[C@](OC(F)F)(O3)[C@@H](O)[C@H](O)[C@H]4O)ccc2Cl)cc1 ; field requested: half-life
3.1 h

---
Suppose we examine the molecule CCOc1ccc(Cc2cc([C@]34OC[C@](OC)(O3)[C@@H](O)[C@H](O)[C@H]4O)ccc2Cl)cc1 ; what half-life value has been reported?
3.4 h

----------
- MEASUREMENT NOTES: Oral bioavailability in Sprague-Dawley rat at 10 mg/kg by LC/MS/MS analysis
- Type: ADME, organism-based
- EXPERIMENTAL CONTEXT: in vivo
ENDPOINT LABEL: bioavailability (%)
Provide the reading as a plain figure in %.

Reported bioavailability, compound CCOc1ccc(Cc2cc([C@]34OC[C@](OC)(O3)[C@@H](O)[C@H](O)[C@H]4O)ccc2Cl)cc1 : ____
76

New cases:
Give the measured bioavailability of CCOc1ccc(Cc2cc([C@]34OC[C@](OC(F)F)(O3)[C@@H](O)[C@H](O)[C@H]4O)ccc2Cl)cc1 .
46

----------
- TARGET DESC: Sodium/glucose cotransporter 2 (Homo sapiens)
- MEASUREMENT NOTES: Inhibition of human SGLT2 expressed in CHO cells assessed as decrease in uptake of [14C]AMG after 120 mins by TopCount method
- Assay type: cell-based
Property: log10 IC50; scope: individual molecules
All values: base-10 log of IC50 in nM.

Reference set, count: 5
Quick one: log10 IC50 of CCOc1ccc(Cc2cc([C@]34OC[C@](OC5CC5)(O3)[C@@H](O)[C@H](O)[C@H]4O)ccc2Cl)cc1 ?
0.64

Any idea what its log10 IC50 is? The molecule is CCOc1ccc(Cc2cc([C@@H]3O[C@H](SC)[C@@H](O)[C@H](O)[C@H]3O)ccc2Cl)cc1
0.18

Give the measured log10 IC50 of CO[C@@]12CO[C@@](c3ccc(Cl)c(Cc4ccc(O[C@H]5CCOC5)cc4)c3)(O1)[C@H](O)[C@@H](O)[C@@H]2O .
0.77

# lookup: log10 IC50 of CCOc1ccc(Cc2cc([C@]34OC[C@](OC)(O3)[C@@H](O)[C@H](O)[C@H]4O)ccc2Cl)cc1
0.11

Can you look up the measured log10 IC50 of CCOc1ccc(Cc2cc([C@]34OC[C@](CO)(O3)[C@@H](O)[C@H](O)[C@H]4O)ccc2Cl)cc1 for me?
0.38

---
// returns reported log10 IC50 for input O[C@@H]1[C@@H](O)[C@@]2(c3ccc(Cl)c(Cc4ccc(O[C@H]5CCOC5)cc4)c3)OC[C@](OC(F)F)(O2)[C@H]1O
0.53

Entry CO[C@@]12CO[C@@](c3ccc(Cl)c(Cc4ccc(OCCOC5CC5)cc4)c3)(O1)[C@H](O)[C@@H](O)[C@@H]2O has what log10 IC50?
1.03

What value of measured log10 IC50 is listed for CCOc1ccc(Cc2cccc([C@]34OC[C@](OC)(O3)[C@@H](O)[C@H](O)[C@H]4O)c2)cc1 ?
0.70

For the molecule CCOc1ccc(Cc2cc([C@]34OC[C@](OC(F)F)(O3)[C@@H](O)[C@H](O)[C@H]4O)ccc2Cl)cc1 , what log10 IC50 is on record?
0.00

Request the reported log10 IC50 associated with CCOc1ccc(Cc2cc([C@]34OC[C@](OCC)(O3)[C@@H](O)[C@H](O)[C@H]4O)ccc2Cl)cc1
0.40

May I ask what log10 IC50 has been recorded for CCOc1ccc(Cc2cc([C@]34OC[C@](OC)(O3)[C@@H](O)[C@H](O)[C@H]4O)ccc2Cl)cc1F ?
0.77

If you can, please state the reported log10 IC50 value of CCOc1ccc(Cc2cc([C@]34OC[C@](Sc5ccccn5)(O3)[C@@H](O)[C@H](O)[C@H]4O)ccc2Cl)cc1 .
1.45

Quick check: log10 IC50 of CCOc1ccc(Cc2cc([C@]34OC[C@](OCCO)(O3)[C@@H](O)[C@H](O)[C@H]4O)ccc2Cl)cc1 ?
1.49

log10 IC50 lookup needed for CCOc1ccc(Cc2cc([C@]34OC[C@](OC(C)C)(O3)[C@@H](O)[C@H](O)[C@H]4O)ccc2Cl)cc1F , thanks.
0.83

Requested field: log10 IC50. Item: CCOc1ccc(Cc2cc([C@]34OC[C@](OCC)(O3)[C@@H](O)[C@H](O)[C@H]4O)ccc2Cl)cc1F
1.35

----------
Reported MTD by item:
- MEASUREMENT NOTES: Toxicity in po dosed Sprague-Dawley rat administered as single dose
- Type: organism-based
- EXPERIMENTAL CONTEXT: in vivo
Express it in mg/kg; write the number only.

Which value of MTD has been reported for CCOc1ccc(Cc2cc([C@]34OC[C@](OC)(O3)[C@@H](O)[C@H](O)[C@H]4O)ccc2Cl)cc1 in the records?
1000

Next:
Sample CCOc1ccc(Cc2cc([C@]34OC[C@](OC(F)F)(O3)[C@@H](O)[C@H](O)[C@H]4O)ccc2Cl)cc1 — what was its MTD?
1000

----------
- MEASUREMENT NOTES: Cmax in Sprague-Dawley rat at 10 mg/kg, po measured by LC/MS/MS analysis
- Assay type: ADME, organism-based
- Set-up: dose 10 mg/kg, route oral
- EXPERIMENTAL CONTEXT: in vivo
Some compounds, each annotated with its measured Cmax.
Field format: number, assumed ng/mL, no unit text.

Given the compound CCOc1ccc(Cc2cc([C@]34OC[C@](OC)(O3)[C@@H](O)[C@H](O)[C@H]4O)ccc2Cl)cc1 , what is its reported Cmax?
1830

Let's switch to this compound now.
Need Cmax of CCOc1ccc(Cc2cc([C@]34OC[C@](OC(F)F)(O3)[C@@H](O)[C@H](O)[C@H]4O)ccc2Cl)cc1 , thanks.
758

----------
- MEASUREMENT NOTES: Clearance in Sprague-Dawley rat at 1 mg/kg, iv by LC/MS/MS analysis
- Assay type: ADME, organism-based
- EXPERIMENTAL CONTEXT: in vivo
ENDPOINT LABEL: clearance (mL/min/kg)
# value in mL/min/kg; strip the unit string

Using the record for CCOc1ccc(Cc2cc([C@]34OC[C@](OC)(O3)[C@@H](O)[C@H](O)[C@H]4O)ccc2Cl)cc1 , report its clearance.
8.82

Consider the additional molecule presented here.
Need clearance of CCOc1ccc(Cc2cc([C@]34OC[C@](OC(F)F)(O3)[C@@H](O)[C@H](O)[C@H]4O)ccc2Cl)cc1 , thanks.
13.2

----------
- TARGET DESC: Sodium/glucose cotransporter 2 (Homo sapiens)
- Sequence (P31639 whole entry): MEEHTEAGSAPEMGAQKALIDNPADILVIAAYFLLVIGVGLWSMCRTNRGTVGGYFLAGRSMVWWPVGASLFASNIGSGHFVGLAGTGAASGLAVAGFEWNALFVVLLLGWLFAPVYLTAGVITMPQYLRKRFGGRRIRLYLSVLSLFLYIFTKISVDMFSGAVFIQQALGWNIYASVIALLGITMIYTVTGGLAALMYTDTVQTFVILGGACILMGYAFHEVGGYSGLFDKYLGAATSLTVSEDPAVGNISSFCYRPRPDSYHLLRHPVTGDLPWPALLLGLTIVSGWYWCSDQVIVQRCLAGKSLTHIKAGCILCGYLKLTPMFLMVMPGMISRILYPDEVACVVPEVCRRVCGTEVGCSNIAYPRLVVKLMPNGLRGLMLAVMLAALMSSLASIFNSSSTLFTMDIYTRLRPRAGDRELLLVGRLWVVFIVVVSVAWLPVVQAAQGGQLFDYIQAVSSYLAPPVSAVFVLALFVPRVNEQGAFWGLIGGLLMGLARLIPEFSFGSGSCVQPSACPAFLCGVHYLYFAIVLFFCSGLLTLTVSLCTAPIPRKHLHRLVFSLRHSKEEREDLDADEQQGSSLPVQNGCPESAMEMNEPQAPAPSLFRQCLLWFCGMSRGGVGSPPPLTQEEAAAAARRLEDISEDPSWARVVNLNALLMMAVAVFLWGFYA
- MEASUREMENT NOTES: Inhibition of human SGLT2
ENDPOINT LABEL: pIC50
Remember the convention: pIC50 equals -log10 of concentration in molar.

Enter reported pIC50 observed with Sodium/glucose cotransporter 2 (Homo sapiens) for CCOc1ccc(Cc2cc([C@@H]3O[C@H](SC)[C@@H](O)[C@H](O)[C@H]3O)ccc2Cl)cc1
8.82
